system: BaF3 EML4-ALK WT cells; experiment: Cytotoxicity on BaF3 cell transfected with EML4-ALK WT (WST-1); conditions: Ba/F3 EML4-ALK, 72 h, read-out: BaF3 EML4-ALK WT, IC50 of the cytotoxicity
pIC50: −log10 of the molar value.
measureName: pIC50

Consider the reported pIC50 for these compounds:
{"columns": ["compound", "pIC50"],
 "data": [
  ["COc1cc2c(cc1Nc1ncc(Cl)c(Nc3ccccc3S(=O)(=O)C(C)C)n1)CCNC2C(C)C (stereo not shown)", 7.89],
  ["COc1cc2c(cc1Nc1ncc(Cl)c(Nc3ccccc3S(=O)(=O)C(C)C)n1)CNCC21CC1", "> 7.30"],
  ["CCN1Cc2cc(Nc3ncc(Cl)c(Nc4ccccc4S(=O)(=O)C(C)C)n3)c(OC)cc2C(C)(C)C1", "> 7.30"]
]}

Next compound, please.
In: Recorded pIC50 for CCC1(C)NCCc2cc(Nc3ncc(Cl)c(Nc4ccccc4S(=O)(=O)C(C)C)n3)c(OC)cc21 (stereo not shown) , please?
Out: > 7.30

Taken from patent US10053458B2.
